refractive index listing for selected compounds.
# runDescription: refractive index (Na D-line) (dimensionless)
# measurementSetup: 298.15 K; 101.33 kPa; Liquid; Standard Abbe refractometry

[
  {
    "compound": "OCC(O)CO",
    "refractive index": 1.4726
  },
  {
    "compound": "CCC(C)O (centres undefined)",
    "refractive index": 1.3936
  },
  {
    "compound": "O",
    "refractive index": 1.3325
  },
  {
    "compound": "CCC(C)(C)O",
    "refractive index": 1.4026
  }
]
